tgt: human coagulation factor XI (UniProt P03951 19-625)
assay_name: Conversion Assay
measurement_kind: pEC50
The quantity pEC50 is defined as the negative base-10 logarithm of the molar concentration.

These recorded examples may help you get a feel for the data.
[
  {
    "binder": "humanized and germlined anti-FXI antibody TPP-3583 (antibody, V domains shown) VH: EVTLRESGPALVKPTQTLTLTCTFSGFSLSTSGMGVGWIRQPPGKALEWLAHIDWDDDKYYSPSLKSRLTISKDTSKNQVVLTMTNMDPVDTATYYCARIRSSVYAHYYGMDYWGQGTTVTVSS VL: DIVMTQSPDSLAVSLGERATISCKASQSVLYSGDNYLNWYQQKPGQPPKLLIYAASTLESGIPDRFSGSGSGTDFTLTISSLQAEDVAVYYCQQYNGDPWTFGGGTKVEIKR",
    "data_value": 9.22
  },
  {
    "binder": "humanized and germlined anti-FXI antibody TPP-3577 (antibody, V domains shown) VH: EVTLRESGPALVKPTQTLTLTCTFSGFSLSTSGMCVGWIRQPPGKALEWLAHIDWDDDKYYSTSLKSRLTISKDTSKNQVVLTMTNMDPVDTATYYCARIRSSVYAHYYGMDVWGQGTTVTVSS VL: DIVMTQSPDSLAVSLGERATISCKSSQSVLYSGDNYLNWYQQKPGQPPKLLIYAASTLESGIPDRFSGSGSGTDFTLTISSLQAEDVAVYYCQQYNGDPWTFGGGTKVEIKR",
    "data_value": 9.40
  }
]

Prompt: I am curious: what pEC50 value has been reported for murine anti-FXI antibody 1A6 (antibody, V domains shown) VH: QVTLKESGPGILKPSQTLSLTCSFSGFSLSTSGMGVGWIRQPSGKGLEWLAHIWWDDDKYYNPSLKSQLTISKDTSRNQVFLKITSVDAADTATYYCARKRSSVVAHYYAMDYWGQGTSVTVSS VL: DIVLTQSPASLAVSLGQRATISCKASQSVDYDGDSYLNWYQQKPGQPPKLLIYAASNLESGIPARFSGSGSGTDFTLNIHPVEEEDAATYYCQQSNGDPWTFGGGTKLEIK ?
Response: 9.30

Prompt: Try this binder next: humanized and germlined anti-FXI antibody TPP-3290 (antibody, V domains shown) VH: EVTLRESGPALVKPTQTLTLTCTFSGFSLSTSGMGVSWIRQPPGKALEWLAHIDWDDDKYYSTSLKSRLTISKDTSKNQVVLTMTNMDPVDTATYYCARIRSSVYAHYYGMDYWGQGTTVTVSS VL: DIVMTQSPDSLAVSLGERATISCKASQSVLYSGDNYLNWYQQKPGQPPKLLIYAASTLESGIPDRFSGSGSGTDFTLTISSLQAEDVAVYYCQQYNGTPWTFGGGTKVEIKR
Response: 9.40
